Overview of recorded polymerase ribozyme fitness (log ratio) for various variants
B1: TPR 5TU (parent)
chain: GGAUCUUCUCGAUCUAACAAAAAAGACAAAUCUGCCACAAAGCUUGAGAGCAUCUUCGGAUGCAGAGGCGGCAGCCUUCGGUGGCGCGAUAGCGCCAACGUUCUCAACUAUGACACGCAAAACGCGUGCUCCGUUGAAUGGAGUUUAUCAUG

# Variants of: B1
# method: polymerase ribozyme fitness, log enrichment relative to wild type (log ratio); higher = more active; in vitro selection for triplet polymerase activity
This sample holds only a part of the variants without activity.
Please respond with just the number, no unit label.

mutationId	val
A19U C69G C96G U104G	-1.98

Record summary for A24U A30C G140A : reported polymerase ribozyme fitness (log ratio) = -3.94

Record summary for U9G C85A : reported polymerase ribozyme fitness (log ratio) = -3.76

Record summary for A22U U82A : reported polymerase ribozyme fitness (log ratio) = 0.472

Record summary for U45A C99A A106U A121U C149G G152A : reported polymerase ribozyme fitness (log ratio) = -4.01

// data source = the RNAGym collection of RNA variant scans (doi:10.1073/pnas.2313332121)
